The origin of these recorded values is paper PMC9516332.

study-target: panel of 255 wild-type kinases (Homo sapiens)
experimental-protocol: Kinase panel profiling at 1 µmol/L (MSA or IMAP), percentage inhibition
Type: biochemical
recorded-conditions: kinase PKCε; 1 µmol/L single concentration; read-out: %-inhibition at 1 µmol/L, PKCε
Exercise: for every item that follows, state its recorded inhibition at 1 µM.
Answers are plain numbers, in %.

# example entries with known answers
# chemical-structure, study-target, observed-value
records = [
    ("Cn1cnc2c(F)c(Nc3ccc(Br)cc3F)c(C(=O)NOCCO)cc21", "panel of 255 wild-type kinases (Homo sapiens)", 11),
    ("Cn1cnc2c(F)c(Nc3ccc(Br)cc3Cl)c(C(=O)NOCCO)cc21", "panel of 255 wild-type kinases (Homo sapiens)", 0.617),
    ("C=CC(=O)N1CCC([C@@H]2CCNc3c(C(N)=O)c(-c4ccc(Oc5ccccc5)cc4)nn32)CC1", "panel of 255 wild-type kinases (Homo sapiens)", 8),
]

*Q* Fetch value of inhibition at 1 µM on panel of 255 wild-type kinases (Homo sapiens) for FC(F)(F)c1ccc(CNc2ccc(Cc3c[nH]c4ncc(Cl)cc34)cn2)cn1 .
*A* 1.26

###

study-target: panel of 255 wild-type kinases (Homo sapiens, UniProt P29317)
Sequence (P29317 24-976): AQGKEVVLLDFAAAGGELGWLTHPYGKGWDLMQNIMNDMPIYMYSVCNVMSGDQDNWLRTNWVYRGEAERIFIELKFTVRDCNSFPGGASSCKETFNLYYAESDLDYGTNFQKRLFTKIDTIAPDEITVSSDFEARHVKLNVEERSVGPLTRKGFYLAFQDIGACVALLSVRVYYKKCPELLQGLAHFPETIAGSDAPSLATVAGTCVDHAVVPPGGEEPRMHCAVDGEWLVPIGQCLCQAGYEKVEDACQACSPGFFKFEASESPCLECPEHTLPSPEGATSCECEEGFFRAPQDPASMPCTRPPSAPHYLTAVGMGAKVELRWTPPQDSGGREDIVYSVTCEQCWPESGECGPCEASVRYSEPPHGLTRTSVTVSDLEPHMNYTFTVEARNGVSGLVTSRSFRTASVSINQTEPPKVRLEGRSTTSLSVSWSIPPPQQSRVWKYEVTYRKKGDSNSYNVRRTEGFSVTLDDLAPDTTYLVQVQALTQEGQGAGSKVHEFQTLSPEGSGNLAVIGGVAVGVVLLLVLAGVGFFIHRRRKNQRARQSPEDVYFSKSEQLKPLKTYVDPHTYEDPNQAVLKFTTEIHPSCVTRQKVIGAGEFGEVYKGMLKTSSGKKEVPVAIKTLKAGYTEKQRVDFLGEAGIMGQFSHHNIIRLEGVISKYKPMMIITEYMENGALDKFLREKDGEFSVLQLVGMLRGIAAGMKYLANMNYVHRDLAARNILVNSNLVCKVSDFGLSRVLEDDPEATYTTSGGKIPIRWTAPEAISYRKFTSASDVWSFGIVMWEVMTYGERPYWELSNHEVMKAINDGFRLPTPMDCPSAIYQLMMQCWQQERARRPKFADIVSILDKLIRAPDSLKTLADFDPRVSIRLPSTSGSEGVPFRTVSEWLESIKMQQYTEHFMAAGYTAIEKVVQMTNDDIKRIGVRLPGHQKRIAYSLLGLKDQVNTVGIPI
experimental-protocol: Kinase panel profiling at 1 µmol/L (MSA or IMAP), percentage inhibition
Assay type: biochemical
recorded-conditions: kinase EPHA2; 1 µmol/L single concentration; read-out: %-inhibition at 1 µmol/L, EPHA2
Please mark 1 if the recorded inhibition at 1 µM is equal to or greater than 60%, and 0 if it falls below.

Worked examples, 3 molecules total:
# chemical-structure, class-label
rows = [
    ("CCc1nc(C(N)=O)c(Nc2ccc(N3CCC(N4CCN(C)CC4)CC3)c(OC)c2)nc1NC1CCOCC1", 1),
    ("CO[C@]1(C(=O)N[C@@H](C)c2ccc(-n3cc(F)cn3)nc2)CC[C@H](c2nc(C)cc(Nc3cc(C)[nH]n3)n2)CC1", 1),
    ("COc1ccc(CN2C3CC2CN(c2ccc(-c4cc(OCC(C)(C)O)cn5ncc(C#N)c45)cn2)C3)cn1", 0),
]

*Q* Could you tell me if the measured inhibition at 1 µM of C[C@H]1Oc2cc(cnc2N)-c2c(nn(C)c2C#N)CN(C)C(=O)c2ccc(F)cc21 reaches 60% or more?
*A* 0

*Q* Determine whether measured inhibition at 1 µM meets or exceeds 60% for CCn1c(=O)c(-c2cc(NC(=O)Nc3ccccc3)c(F)cc2Br)cc2cnc(NC)cc21
*A* 1

###

study-target: panel of 255 wild-type kinases (Homo sapiens)
experimental-protocol: Kinase panel profiling at 1 µmol/L (MSA or IMAP), percentage inhibition
Type: biochemical
recorded-conditions: BRSK2 kinase assay; 1 µmol/L single concentration; read-out: %-inhibition BRSK2
endpoint-name: inhibition at 1 µM (%)
One number for each entry, in %.

# chemical-structure, observed-value
rows = [
    ("C=CC(=O)N1CCC([C@@H]2CCNc3c(C(N)=O)c(-c4ccc(Oc5ccccc5)cc4)nn32)CC1", 0.0746),
    ("COc1ccc(CN2C3CC2CN(c2ccc(-c4cc(OCC(C)(C)O)cn5ncc(C#N)c45)cn2)C3)cn1", 35),
]

*Q* Retrieve inhibition at 1 µM measured for C[C@H](Nc1ncnc2nc[nH]c12)c1cc2cccc(Cl)c2c(=O)n1-c1ccccc1 and print it.
*A* 11
